# System: M14 melanoma
# protocol.summary: NCI-60 one-dose screen, 48 h (100 = growth as untreated, 0 = no growth, -100 = all killed)
# condition.info: 10 µM unless noted
The panel holds about 83,000 compounds, 20% with a hit somewhere; the sample as a whole holds those more often.
Provide the recorded growth for the entries that follow.
One number for each entry, in %.

> print(dat)
                                   molecule   measured.on  result.type  value.measured
1  O=C(NNC(=O)c1ccc([N+](=O)[O-])cc1)c1ccc([N+](=O)[O-])cc1  M14 melanoma       growth            95.4

Hi there! I need growth for each item below, if you can.
1. COc1cc2nc(C(=O)N3CCCCC3)cc(Nc3ccccc3)c2cc1OC
2. CN(C)c1ccc(/C=N/N=C(N)N)cc1
3. CC(C)(C)C(=O)Nc1nc2c(s1)CCc1ccn(S(=O)(=O)c3ccccc3)c1-2
4. CC(=O)Nc1ccc(OC(=O)c2ccccc2O)cc1
5. O=c1c(-c2ccc3c(c2)OCO3)coc2c(CO)c(O)ccc12
6. O=C(NOC1OC(CO)C(O)C(O)C1O)Nc1ccccc1 (stereo unspecified)
7. Cc1ccc(-c2cn3cc([N+](=O)[O-])ccc3n2)cc1

Result:
116
51.2
96.1
109
45
108
72.5

---

# System: CCRF-CEM leukemia
# protocol.summary: NCI-60 one-dose screen, 48 h
# condition.info: 10 µM unless noted
About 83,000 compounds went through this panel and 20% of them were active in at least one assay; those are over-represented in the sample as a whole. Activity calls are given as the source filed them. Rule for the calls: active = growth percent below 10; inactive = the rest.
Classes to choose from: active, inactive

> print(dat)
                                   molecule  group.label
1  O=C(NCCNc1nccc(-c2c(-c3cccc(O)c3)nc3sccn23)n1)c1cccc(C(F)(F)F)c1     inactive
2  COc1cc(-c2nc3ccccc3s2)ccc1OCc1nc2n(n1)S(=O)(=O)c1ccccc1N2C       active
3  Cc1cc(NCCN(C(C)C)C(C)C)nc(/N=C(\N)Nc2ccc(Cl)c(C(F)(F)F)c2)n1       active
4  CCC(CC(C)C)Nc1ccc(NC(CC)CC(C)C)cc1 (stereo not given)     inactive

Turning to the following molecule.
Problem: Test call, this molecule: Cc1ccc(N(CC2=NCCN2)c2cccc(O)c2)cc1
Result: inactive

---

# System: HCT-15 colon
# protocol.summary: NCI-60 one-dose screen, 48 h (100 = growth as untreated, 0 = no growth, -100 = all killed)
# condition.info: 10 µM unless noted
About 83,000 compounds went through this panel and 20% of them were active in at least one assay; those are over-represented in the sample as a whole.
Please provide measured growth for the entries that follow.
Numbers only, in %.

Worked examples, 10 compounds total:
> print(dat)
                                    compound   measured.on  value.measured
 1        COc1ccc2c(c1)nnn1c3ncccc3c(N=O)c21  HCT-15 colon           -33.2
 2  O=C(O)c1ccc(-c2nn(-c3ccc(C(=O)O)cc3)cc2/C=N/Nc2c(F)c(F)cc(F)c2F)cc1  HCT-15 colon             107
 3           Cc1cc(Nc2ccc(Cl)c(Cl)c2)nc(N)n1  HCT-15 colon            97.3
 4  CNCCCOc1c(Br)cc(CCNC(=O)/C(Cc2ccc(OC)c(Br)c2)=N/O)cc1Br  HCT-15 colon            22.9
 5  CN(C)c1ccc(/C=N/n2c(-c3cc(F)c(Cl)cc3Cl)nn(CN3CCOCC3)c2=S)cc1  HCT-15 colon             103
 6  c1ccc(CNCCN(CCNCc2ccccn2)Cc2ccc3ccccc3c2)nc1  HCT-15 colon            1.52
 7  COc1ccc(-c2nnc(SCC(=O)N3CCN(c4cc5c(cc4F)c(=O)c(C(=O)O)cn5C4CC4)CC3)o2)cc1OC  HCT-15 colon            93.6
 8  O=C(Nc1ccc(-n2ccc3c(NC(=O)c4ccccc4)ncnc32)cc1)c1ccc(Cl)c(C(F)(F)F)c1  HCT-15 colon            3.27
 9  COC(=O)c1oc2c(C(C)=O)c(OCCCN(C)C)ccc2c1C  HCT-15 colon            99.6
10  Nc1ncc(-c2ccc3ncnc(Nc4cncc(Cl)c4)c3c2)cn1  HCT-15 colon            73.2

# map each compound to its growth
1. O=C(CSc1nnc(-c2ccc(Cl)cc2)o1)Nc1ccc(C(=O)/C=C/c2ccccc2)cc1
2. O=C(NCCNc1nccc(-c2c(-c3cccc(O)c3)nc3sccn23)n1)c1ccccc1O
3. O=C(Nc1cccc(-n2ccc3c(NC(=O)c4ccccc4)nccc32)c1)Nc1cc(C(F)(F)F)cc(C(F)(F)F)c1
4. C[C@]12O[C@H]1[C@H](O)c1c(cc(O)c3c1C(=O)c1cccc(O)c1-3)C2=O
5. Cc1nssc1=S
6. CCOc1ccc(NC2=C(Cl)C(=O)c3ccccc3C2=O)cc1
7. COc1ccc(-c2cc3ccc(N(C)C)cc3nc2N)c(F)c1

Result:
96.7
54.5
5.94
103
104
-79.9
31
